MOR (Homo sapiens, UniProt P35372) data, read-out pKi
Sequence (P35372 whole entry): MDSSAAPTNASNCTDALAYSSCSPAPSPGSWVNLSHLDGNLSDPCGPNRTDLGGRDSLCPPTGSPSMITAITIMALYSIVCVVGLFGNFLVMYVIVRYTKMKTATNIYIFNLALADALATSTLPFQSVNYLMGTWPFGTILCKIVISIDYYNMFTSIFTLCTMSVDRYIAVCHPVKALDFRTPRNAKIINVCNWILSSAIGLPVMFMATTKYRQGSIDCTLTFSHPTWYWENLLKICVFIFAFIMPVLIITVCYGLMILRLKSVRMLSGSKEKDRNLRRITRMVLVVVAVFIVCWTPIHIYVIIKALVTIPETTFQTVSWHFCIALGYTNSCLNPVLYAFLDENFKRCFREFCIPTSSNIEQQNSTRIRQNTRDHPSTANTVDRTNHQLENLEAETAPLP
Expect pKi as a plain number equal to -log10 of the molar concentration.

Entry CCOC(=O)[C@@]12C[C@@H]1[C@@H](n1ccc3c(NC)nc(C#Cc4ccc(Br)s4)nc31)[C@H](O)[C@@H]2O [compound 29] under MOR (Homo sapiens, UniProt P35372) had pKi of 6.43

Fill in: MOR (Homo sapiens, UniProt P35372) pKi for CCOC(=O)[C@@]12C[C@@H]1[C@@H](n1ccc3c(NC)nc(C#Cc4ccccc4)nc31)[C@H](O)[C@@H]2O [compound 40] = 5.83

Lab note: compound CCOC(=O)[C@@]12C[C@@H]1[C@@H](n1ccc3c(NCCc4ccccc4)nc(C#Cc4ccccc4)nc31)[C@H](O)[C@@H]2O [compound 43] tested on MOR (Homo sapiens, UniProt P35372); recorded pKi was 5.75

pKi on MOR (Homo sapiens, UniProt P35372) for O[C@@H]1[C@H](O)[C@@H]2C[C@@H]2[C@H]1n1ccc2c(NC(C3CC3)C3CC3)nc(C#Cc3ccccc3)nc21 [compound 56] is 5.84

The measured pKi that CNc1nc(C#Cc2ccccc2)nc2c1ccn2[C@H]1[C@H](O)[C@H](O)[C@@H]2C[C@@H]21 [compound 54] showed for MOR (Homo sapiens, UniProt P35372) is 5.57

* * *

ATTRIBUTE_MEASURED: pKi
Kindly note that pKi refers to -log10 of the concentration in mol/L and answer with the value alone.

Per the reported hSERT (Homo sapiens, UniProt P31645) data, CCOC(=O)[C@@]12C[C@@H]1[C@@H](n1ccc3c(NC)nc(I)nc31)[C@@H]1OC(C)(C)O[C@@H]12 has pKi of 5.18

* * *

Biological target: hDAT (Homo sapiens, UniProt Q01959)
Sequence (Q01959 whole entry): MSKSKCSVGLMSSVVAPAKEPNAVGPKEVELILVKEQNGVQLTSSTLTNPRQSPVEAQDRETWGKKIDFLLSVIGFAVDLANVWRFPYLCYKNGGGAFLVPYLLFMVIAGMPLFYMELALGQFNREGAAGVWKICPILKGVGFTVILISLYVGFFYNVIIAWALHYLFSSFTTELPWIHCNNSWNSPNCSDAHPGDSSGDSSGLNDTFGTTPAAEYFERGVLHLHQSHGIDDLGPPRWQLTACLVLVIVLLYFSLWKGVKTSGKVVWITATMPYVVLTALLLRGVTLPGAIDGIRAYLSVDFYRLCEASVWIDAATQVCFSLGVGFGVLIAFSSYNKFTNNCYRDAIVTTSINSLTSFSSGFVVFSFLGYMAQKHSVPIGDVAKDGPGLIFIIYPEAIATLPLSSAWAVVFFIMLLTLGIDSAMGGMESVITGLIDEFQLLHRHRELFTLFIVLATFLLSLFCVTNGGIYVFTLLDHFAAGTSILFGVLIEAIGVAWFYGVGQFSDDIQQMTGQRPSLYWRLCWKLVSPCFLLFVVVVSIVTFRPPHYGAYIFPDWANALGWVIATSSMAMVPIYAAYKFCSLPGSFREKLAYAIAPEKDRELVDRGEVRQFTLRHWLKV
Test: hDAT binding modulation, [3H]mazindol 119
ATTRIBUTE_MEASURED: EC50 (nM)
State the answer as a number, implicitly in nM.

Reported EC50 ( CCOC(=O)[C@@]12C[C@@H]1[C@@H](n1ccc3c(NC)nc(C#Cc4ccc(Cl)s4)nc31)[C@H](O)[C@@H]2O [compound 28] ) = 2160

* * *

Protein target, amino acids: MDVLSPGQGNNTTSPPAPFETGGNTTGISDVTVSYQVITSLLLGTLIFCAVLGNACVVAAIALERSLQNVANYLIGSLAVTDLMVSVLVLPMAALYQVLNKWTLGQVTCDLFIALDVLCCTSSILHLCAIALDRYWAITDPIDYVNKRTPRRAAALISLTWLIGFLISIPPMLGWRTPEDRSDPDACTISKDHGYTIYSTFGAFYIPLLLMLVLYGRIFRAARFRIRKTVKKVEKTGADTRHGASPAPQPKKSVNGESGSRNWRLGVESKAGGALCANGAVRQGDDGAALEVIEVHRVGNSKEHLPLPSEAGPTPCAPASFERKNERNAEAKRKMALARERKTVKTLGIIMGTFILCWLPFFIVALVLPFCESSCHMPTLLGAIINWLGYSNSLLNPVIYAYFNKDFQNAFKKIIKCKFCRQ
ATTRIBUTE_MEASURED: Ki (µM)
Give your result in µM as a bare value.

// CNC(=O)[C@@]12C[C@@H]1[C@@H](n1cnc3c(NC4CC4c4ccccc4)nc(C#Cc4ccccc4)nc31)[C@H](O)[C@@H]2O (mixture of isomers) : Ki value = 6.3

* * *

Protein target, amino acids: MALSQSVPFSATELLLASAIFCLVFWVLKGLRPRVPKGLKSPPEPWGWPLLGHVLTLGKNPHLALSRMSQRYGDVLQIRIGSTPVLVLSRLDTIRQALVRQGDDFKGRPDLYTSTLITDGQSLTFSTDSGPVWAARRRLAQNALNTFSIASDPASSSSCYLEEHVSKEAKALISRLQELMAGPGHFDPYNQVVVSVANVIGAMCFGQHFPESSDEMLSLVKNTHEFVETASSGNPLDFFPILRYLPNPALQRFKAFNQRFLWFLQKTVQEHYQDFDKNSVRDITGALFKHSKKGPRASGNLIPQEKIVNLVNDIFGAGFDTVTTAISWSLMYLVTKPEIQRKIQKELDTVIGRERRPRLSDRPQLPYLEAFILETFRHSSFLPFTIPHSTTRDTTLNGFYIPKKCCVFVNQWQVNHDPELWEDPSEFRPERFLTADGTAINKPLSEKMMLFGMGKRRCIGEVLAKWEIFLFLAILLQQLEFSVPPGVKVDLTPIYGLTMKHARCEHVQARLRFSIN
pIC50: −log10 of the molar value.
ATTRIBUTE_MEASURED: pIC50

get_value(item= CCOC(=O)[C@@]12C[C@@H]1[C@@H](n1ccc3c(NC)nc(C#Cc4ccc(Cl)s4)nc31)[C@H](O)[C@@H]2O [compound 28] , readout=pIC50) returns ≤ 5.00

* * *

Molecular target: hNOP (Homo sapiens, UniProt P41146)
Sequence (P41146 whole entry): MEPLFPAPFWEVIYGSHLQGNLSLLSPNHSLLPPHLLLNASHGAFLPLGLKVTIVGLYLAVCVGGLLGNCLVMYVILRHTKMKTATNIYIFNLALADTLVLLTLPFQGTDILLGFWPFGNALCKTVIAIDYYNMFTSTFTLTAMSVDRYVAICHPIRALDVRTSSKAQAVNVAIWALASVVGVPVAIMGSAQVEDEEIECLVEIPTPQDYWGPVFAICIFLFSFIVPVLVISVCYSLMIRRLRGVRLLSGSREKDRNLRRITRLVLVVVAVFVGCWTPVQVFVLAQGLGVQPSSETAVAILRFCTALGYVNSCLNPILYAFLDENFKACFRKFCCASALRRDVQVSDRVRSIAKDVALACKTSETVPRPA
pKi: −log10 of the molar value.
ATTRIBUTE_MEASURED: pKi

Short answer on hNOP (Homo sapiens, UniProt P41146) for O[C@@H]1[C@H](O)[C@@H]2C[C@@H]2[C@H]1n1cnc2c(NCc3cccc(Cl)c3)nc(C#Cc3ccccc3)nc21 , pKi: < 5.00

Bench note, hNOP (Homo sapiens, UniProt P41146): entry CCCCC(=O)[C@@]12C[C@@H]1[C@@H](n1ccc3c(NC)nc(C#Cc4ccc(Cl)s4)nc31)[C@H](O)[C@@H]2O , its pKi = < 5.00

The measured pKi that CCOC(=O)[C@@]12C[C@@H]1[C@@H](n1cnc3c(NC)nc(C#Cc4ccc(Br)s4)nc31)[C@H](O)[C@@H]2O showed for hNOP (Homo sapiens, UniProt P41146) is < 5.00

* * *

Target protein (sequence): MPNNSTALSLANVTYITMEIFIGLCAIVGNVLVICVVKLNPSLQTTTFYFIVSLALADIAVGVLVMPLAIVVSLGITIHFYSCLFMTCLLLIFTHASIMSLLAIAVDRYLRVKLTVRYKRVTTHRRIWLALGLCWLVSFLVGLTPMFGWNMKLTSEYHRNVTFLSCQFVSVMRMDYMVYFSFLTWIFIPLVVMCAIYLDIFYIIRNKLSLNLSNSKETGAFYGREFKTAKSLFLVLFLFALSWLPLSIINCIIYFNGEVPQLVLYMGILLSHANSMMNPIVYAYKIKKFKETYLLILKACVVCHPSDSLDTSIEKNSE
pKi: −log10 of the molar value.
1.0 means recorded pKi is 6 or above; 0.0 means it is below 6.

[in] Check if pKi >= 6 (inclusive). Item: CCCCC(=O)[C@@]12C[C@@H]1[C@@H](n1ccc3c(NC)nc(C#Cc4ccc(Cl)s4)nc31)[C@H](O)[C@@H]2O [compound 44]
[out] 1.0

[in] Could you please find out whether CCOC(=O)[C@@]12C[C@@H]1[C@@H](n1cnc3c(NC)nc(C#Cc4ccc(Cl)s4)cc31)[C@H](O)[C@@H]2O [compound 27] has pKi that meets 6 or exceeds it?
[out] 1.0

[in] Please indicate if the recorded pKi for CCOC(=O)[C@@]12C[C@@H]1[C@@H](n1cnc3c(NC)cc(C#Cc4ccc(Cl)s4)nc31)[C@H](O)[C@@H]2O [compound 26] meets or exceeds 6.
[out] 1.0

[in] State whether the measured pKi reaches 6, counting equality as reaching it, for CNc1nc(C#Cc2ccc(Cl)s2)nc2c1ncn2[C@H]1[C@H](O)[C@H](O)[C@]2(C(=O)NCCN)C[C@H]12 [compound 21]
[out] 1.0

[in] Is the recorded value of pKi equal to or greater than 6 for this compound? O[C@@H]1[C@H](O)[C@@H]2C[C@@H]2[C@H]1n1ccc2c(NC(C3CC3)C3CC3)nc(C#Cc3ccc(Br)s3)nc21 [compound 57]
[out] 0.0

[in] Decide: pKi of O[C@@H]1[C@H](O)[C@@H]2C[C@@H]2[C@H]1n1ccc2c(NC(C3CC3)C3CC3)nc(I)nc21 [compound 58] >= 6?
[out] 0.0

[in] Given CCOC(=O)[C@@]12C[C@@H]1[C@@H](n1ccc3c(NC)nc(C#Cc4ccc(Br)s4)nc31)[C@H](O)[C@@H]2O [compound 29] , state whether its pKi is at least 6.
[out] 1.0

[in] Threshold query (pKi >= 6) on CNc1nc(C#Cc2ccc(Cl)s2)nc2c1ncn2[C@H]1[C@H](O)[C@H](O)[C@]2(C(=O)OCCc3ccccc3)C[C@H]12 [compound 36]
[out] 1.0

[in] Can CCOC(=O)[C@@]12C[C@@H]1[C@@H](n1ccc3c(NC)nc(C#Cc4ccc(Cl)s4)nc31)[C@@H]1OC(C)(C)O[C@@H]12 [compound 77] be said to have pKi at or above 6?
[out] 0.0

[in] # bool: pKi of CNc1nc(C#Cc2ccccc2)nc2c1ccn2[C@H]1[C@H](O)[C@H](O)[C@@H]2C[C@@H]21 [compound 54] >= 6
[out] 1.0
